Test system: Hypothalamus
assay name: Effect on neurosteroid biosynthesis assessed as conversion of [3H]pregnenolone to progesterone in frog hyphalamic explats at 1 uM after 2 hrs relative control
Assay type: functional, Pelophylax lessonae
recorded metric: Activity (%)
Write the value in % as a bare number.

Please review the entries below; each comes with its answer.
## Input Any idea what Activity was measured for H-RPGLLD-OH ?
## Output 98.6

## Input Any idea what Activity was measured for H-RPGLLALK-OH ?
## Output 100.4

## Input Any idea what Activity was measured for H-RPGLLDL-OH ?
## Output 136.6

More entries:
## Input Any idea what Activity was measured for H-PGLLDLK-OH [PGLLDLK] ?
## Output 282.1

## Input Any idea what Activity was measured for H-RPGLLDLA-OH ?
## Output 137

## Input Any idea what Activity was measured for H-APGLLDLK-OH [APGLLDLK] ?
## Output 276.5

## Input Any idea what Activity was measured for H-RPGLADLK-OH ?
## Output 108.5
